All values here come from ChEMBL document CHEMBL4265959.

System: K-562R
test.method.notes: Induction of apoptosis in human K562R cells assessed as viable cells at 10 uM by Annexin V staining-based flow cytometry (reference value: 81.13%)
Format: functional
assay.setup: read-out: Activity
Binary call on viability at 10 µM with cut-off 60%: strictly below means MET, and equality or higher means NOT MET.

# count of solved cases: 3
Cc1ccc(NC(=O)c2ccc([N+](=O)[O-])c(OCCCCn3ccnc3)c2)cc1Nc1nccc(-c2cccnc2)n1 NOT MET
COc1ccc(C(=O)Nc2ccc(C)c(Nc3nccc(-c4cccnc4)n3)c2)cc1OCCCCn1ccnc1 MET
Cc1ccc(NC(=O)c2cc(Br)cc(OCCCCn3ccnc3)c2)cc1Nc1nccc(-c2cccnc2)n1 MET

Answer whether the compound Cc1ccc(NC(=O)c2ccc(CN3CCN(C)CC3)cc2)cc1Nc1nccc(-c2cccnc2)n1 has viability at 10 µM strictly less than 60% NOT MET

# TODO verify viability at 10 µM < 60% strictly for this compound: Cc1ccc(NC(=O)c2ccc(OCCCCn3ccnc3)c(Br)c2)cc1Nc1nccc(-c2cccnc2)n1 NOT MET
